tested on: NCI-H522; test: NCI tumour cell line growth inhibition, 48 h
Active and inactive are the calls of the source. Rule as the data show it: active = GI50 up to about 1.1 µM and inactive = higher.
Pick from Yes (active), No (inactive) when you respond.

Take a look at these entries with their results.
COMPOUND: Cc1cc2c(c(O)c1-c1c(C)cc(O)c3c1C(=O)C=CC3=O)C(=O)C=CC2=O
ASSIGNED_CATEGORY: Yes
//
COMPOUND: Cc1ccc(N2C(=O)/C(=C/c3ccc(N(CCC#N)CCC#N)cc3)N=C2COc2ccc(Cl)cc2Cl)cc1
ASSIGNED_CATEGORY: No
//
COMPOUND: Nc1ccccc1.O=P(O)(OP(=O)(O)c1ccccc1)c1ccccc1
ASSIGNED_CATEGORY: No

Write down the call the test reported for this compound. Item: Cc1c2c(n(CC(c3ccccc3)c3ccccc3)c1C)NN=C(C#N)S2(=O)=O
No

Hi, sorry to bother you, what did the test record for CSc1ccc(C2OC(=O)c3ccccc32)c2ccccc12 (centres undefined) ?
No

Dear colleague, could you share the recorded outcome for CC1(C)N=C(N)N=C(N)N1c1cccc(OCc2cccc(N)c2)c1 when you have a moment?
No

Given CC(=O)n1nc(-c2ccccc2)n(/N=C/c2ccc([N+](=O)[O-])cc2)c1=O , state the outcome it received in this test.
No

Outcome? CN(C)CCOc1cccc2c1C(=O)c1ccccc1C2=O
No

Could you please tell me the result logged for Cc1ccccc1-c1c(N)nc(N)nc1C(=O)Nc1nccs1 in this assay?
No

What is the recorded call for this compound in the test? Cc1nc(Nc2ccc(Cl)cc2)sc1C(=O)NNC(=O)C(=O)NN
No

Test call, this compound: CC(=O)N(C(C)=O)n1c(Cc2ccc(Cl)cc2)n[nH]c1=O
No

----------
test system: NCI-H522; test: NCI tumour cell line growth inhibition, 48 h
Active and inactive are the calls of the source. No stated cut-off is given here; in the data, active = GI50 up to about 1.1 µM and inactive = higher.
MEASURE_NAME: GI50

These solved cases illustrate the format of a correct answer.
COMPOUND: C[N+]1(CCC[N+]2(C)CC3C4C=CC(CC4)C3C2)CCOCC1 (stereo not drawn)
TGT: NCI-H522
ENDPOINT_VALUE: > 100 µM (inactive)
//
COMPOUND: COc1ccc2c(c1)[n+]([O-])c(-c1ccc(C)cc1)c(N)[n+]2[O-]
TGT: NCI-H522
ENDPOINT_VALUE: 16.3 µM (inactive)

--- query ---
Retrieve GI50 measured for COC(=O)C1Cc2c([nH]c3ccccc23)C(c2ccccc2O)N1 (stereo not drawn) and print it.
32.4 µM (inactive)

----------
system: NCI-H23; assay: NCI tumour cell line growth inhibition, 48 h
The source made the active and inactive calls. No stated cut-off is given here; in the data, active = GI50 up to about 1.1 µM and inactive = higher.
Your reply should match one of these outcome classes. 1.0 (active), 0.0 (inactive)

Check out these entries, answers already filled in.
COMPOUND: Clc1ccc(-c2c(C3=NCCCN3)nnn2-c2ccc(Cl)cc2)cc1
ASSIGNED_CATEGORY: 0.0

COMPOUND: CN(C)CCOc1cccc2c1C(=O)c1ccccc1C2=O
ASSIGNED_CATEGORY: 0.0

COMPOUND: CC(C)(C)OC(=O)N1N=NC2C3OC(CC3=O)C21 (stereo unspecified)
ASSIGNED_CATEGORY: 0.0

COMPOUND: c1ccc(C2=NOC3(c4ccccc4)SC4CCCCC4CN23)cc1 (stereo unspecified)
ASSIGNED_CATEGORY: 0.0

I would be grateful if you could indicate the recorded call for COc1ccc(C(=O)CC(=O)C(=O)Nc2ccc(C)c(C)c2)cc1 .
0.0

# outcome recorded in this test, key = Cc1c(N2C(=O)/C(=C/C=C/c3ccccc3)N=C2c2ccccc2)c(=O)n(-c2ccccc2)n1C
0.0

Short answer needed: outcome of this test for O=P(O)(O)C(NCC(O)CN1CCOCC1)P(=O)(O)O (stereo unspecified) ?
0.0

Which outcome was entered for the compound O=C(CC(C(=O)c1cccs1)c1ccsc1)c1ccsc1 (stereo unspecified) in this test?
0.0
